- Target system: OATP1B1 (Homo sapiens)
- Sequence (Q9Y6L6 1-691): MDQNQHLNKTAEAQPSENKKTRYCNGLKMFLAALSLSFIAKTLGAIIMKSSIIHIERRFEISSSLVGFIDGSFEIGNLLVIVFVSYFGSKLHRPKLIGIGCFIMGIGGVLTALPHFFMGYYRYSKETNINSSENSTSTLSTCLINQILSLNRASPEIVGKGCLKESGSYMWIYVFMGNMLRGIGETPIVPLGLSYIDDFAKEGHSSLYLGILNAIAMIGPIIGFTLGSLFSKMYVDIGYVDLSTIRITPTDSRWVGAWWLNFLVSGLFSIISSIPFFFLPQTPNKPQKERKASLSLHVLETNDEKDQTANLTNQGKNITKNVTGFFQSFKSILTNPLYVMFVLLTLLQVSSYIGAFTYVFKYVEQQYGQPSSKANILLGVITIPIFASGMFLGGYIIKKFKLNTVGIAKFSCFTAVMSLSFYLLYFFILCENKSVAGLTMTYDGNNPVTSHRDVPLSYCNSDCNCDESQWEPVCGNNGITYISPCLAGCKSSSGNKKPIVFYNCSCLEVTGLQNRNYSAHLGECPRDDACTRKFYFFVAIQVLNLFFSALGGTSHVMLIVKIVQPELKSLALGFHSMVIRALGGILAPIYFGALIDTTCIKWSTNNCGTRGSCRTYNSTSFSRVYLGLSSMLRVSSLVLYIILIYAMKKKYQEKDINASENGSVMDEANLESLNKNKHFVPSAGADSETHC
- Assay overview: In vitro inhibition of human transporter OATP1B1
- Conditions: in vitro cell test system; read-out: IC50, inhibition of probe substrate transport via OATP1B1
Property: pIC50
# pIC50 = -log10(concentration in molar units)

stdin: Would you please give the reported pIC50 of O=C1N[C@H](c2cncc(C#Cc3ccccc3)c2)[C@@H](c2ccccc2Cl)O1 [Compound 1 Form A] with OATP1B1 (Homo sapiens)?
stdout: 5.17

meta.source: patent US20250230149A1
